- System: NKG2A−/NKG2C− NK cells
- Test: NK cell activation markers in control NKG2A-/NKG2C- NK cells incubated with peptide and K562 expressing HLA-E
- Assay type: cell-based, human
- Condition details: Trial 6
- Description: A human immortalized myelogenous leukemia cell line (K562), which expresses HLA-E was incubated with novel peptides (Table 1) derived from the human proteome or human cytomegalovirus proteome. […] Controls assessments were also performed using NKG2A−/NKG2C− cells (Tables 10-13). Inhibition was indicated by a decrease in percent cells positive for cell surface markers, while activation was indicated by an increase in percent cells positive for cell surface markers.
Readout label: percentage CCL3+ NK cells (%)
# output: bare number, implied unit %

Solved cases below.
>  <Entry sequence>
VMPGRTLCF [human11, peptide TACR3 226-234 derived from the human proteome]

>  <Readout label>
percentage CCL3+ NK cells

>  <Unit abbreviation>
%

>  <Measured>
13.7

$$$$
>  <Entry sequence>
NMPARTVLF [human14, peptide MTREX 490-498 derived from the human proteome]

>  <Readout label>
percentage CCL3+ NK cells

>  <Unit abbreviation>
%

>  <Measured>
20.9

$$$$
>  <Entry sequence>
FLPNRSLLF [human8, peptide SLC52A3 354-362 derived from the human proteome]

>  <Readout label>
percentage CCL3+ NK cells

>  <Unit abbreviation>
%

>  <Measured>
24.8

$$$$

Need percentage CCL3+ NK cells of VMAPQSLLL [VMAPQSLLL (PQS), negative control peptide, reference compound] , thanks.
22.4

FYI, the data here is from patent US20240092835A1.
